These measurements were taken from patent US20070117743A1.

Record form. Attribute: CC50. Fill in for each entry.
- System: LNCaP
- protocol-text: SRB colorimetric assay of cell growth and viability, LNCaP
- Format: cell-based, human
- assay-conditions: 48 hours exposure; read-out: LC50 LN-caP
Where a SMILES comes first, the peptide text is derived from it. Bridges are numbered along the chain shown (N, C = ends). [ ]: non-standard residue; d: D form. The star is where a group is joined. d(aIle) = CC[C@H](C)[C@@H](N)C(=O)O; d(aThr) = C[C@@H](O)[C@@H](N)C(=O)O; Hexanoyl(5-Me) = CC(C)CCCC(=O)*; Orn = NCCC[C@H](N)C(=O)O; Dhb = C/C=C(\N)C(=O)O
Could you give me the number in µM? Just the number is fine.

Returns the measured CC50 for the input compound. Input: C/C=C1\NC(=O)[C@H](Cc2ccccc2)NC(=O)[C@@H](C(C)C)NC(=O)[C@@H]([C@@H](C)CC)NC(=O)[C@H](NC(=O)[C@H](NC(=O)[C@H](CCCN)NC(=O)[C@H]2CCCN2C(=O)[C@H](NC(=O)[C@@H](NC(=O)[C@@H](NC(=O)[C@H](NC(=O)c2ccccc2)C(C)C)[C@@H](C)O)C(C)C)C(C)C)[C@@H](C)CC)[C@@H](C)OC(=O)[C@H](C(C)C)NC1=O [Compound 20, [Bza^14]-KF]
6.8

Returns the measured CC50 for the input compound. Input: C/C=C1\NC(=O)[C@H](Cc2ccccc2)NC(=O)[C@@H](C(C)C)NC(=O)[C@@H]([C@@H](C)CC)NC(=O)[C@H](NC(=O)[C@H](NC(=O)[C@H](CCCN)NC(=O)[C@H]2CCCN2C(=O)[C@H](NC(=O)[C@@H](NC(=O)[C@@H](NC(=O)[C@H](NC(=O)CCCCCCC)C(C)C)[C@@H](C)O)C(C)C)C(C)C)[C@@H](C)CC)[C@@H](C)OC(=O)[C@H](C(C)C)NC1=O [Compound 18, [Oct^14]-KF]
3.35

Returns the measured CC50 for the input compound. Input: C/C=C1\NC(=O)[C@H](Cc2ccccc2)NC(=O)[C@@H](C(C)C)NC(=O)[C@@H]([C@@H](C)CC)NC(=O)[C@H](NC(=O)[C@H](NC(=O)[C@H](CCCN)NC(=O)[C@H]2CCCN2C(=O)[C@H](NC(=O)[C@@H]2CCCN2C(=O)[C@@H](NC(=O)[C@H](NC(=O)CCCC(C)C)C(C)C)[C@@H](C)O)C(C)C)[C@@H](C)CC)[C@@H](C)OC(=O)[C@H](C(C)C)NC1=O [Compound 47, [Pro^11]-KF] ({Hexanoyl(5-Me)}-[dV]TP[dV][dP][Orn][d(aIle)][d(aThr)][d(aIle)][dV]F[Dhb]V; ester 8-C)
6.78

Returns the measured CC50 for the input compound. Input: C/C=C1\NC(=O)[C@H](Cc2ccccc2)NC(=O)[C@@H](C(C)C)NC(=O)[C@@H]([C@@H](C)CC)NC(=O)[C@H](NC(=O)[C@H](NC(=O)[C@H](CCCN)NC(=O)[C@H]2CCCN2C(=O)[C@H](NC(=O)[C@@H](NC(=O)[C@@H](NC(=O)[C@H](NC(=O)CCCCC(C)(F)F)C(C)C)[C@@H](C)O)C(C)C)C(C)C)[C@@H](C)CC)[C@@H](C)OC(=O)[C@H](C(C)C)NC1=O [Compound 28, [6,6-dFHep^14]-KF]
3.1

Returns the measured CC50 for the input compound. Input: C/C=C1\NC(=O)[C@H](Cc2ccccc2)NC(=O)[C@@H](C(C)C)NC(=O)[C@@H]([C@@H](C)CC)NC(=O)[C@H](NC(=O)[C@H](NC(=O)[C@H](CCCN)NC(=O)[C@H]2CCCN2C(=O)[C@H](NC(=O)[C@@H](NC(=O)[C@@H](NC(=O)[C@H](NC(=O)C(F)(F)C(F)(F)C(F)(F)C(F)(F)C(F)(F)C(F)(F)F)C(C)C)[C@@H](C)O)C(C)C)C(C)C)[C@@H](C)CC)[C@@H](C)OC(=O)[C@H](C(C)C)NC1=O [Compound 26, [Pfh^14]-KF]
3.28
